Quick reference for cell viability among some molecules
Tested on: HepG2
Experiment: cell viability relative to DMSO; higher = less toxic
Conditions: 72 h; 1 nM

molecule	system tested	cell viability (%)
O=C1OC(OC(=O)c2cccnc2Nc2cccc(C(F)(F)F)c2)c2ccccc21 (configuration not stated) [talniflumate]	HepG2	96.3
Cc1cc(C)c(S(=O)(=O)Nc2cccc(C(F)(F)F)c2)c(C)c1 [m-3M3FBS]	HepG2	101
COc1cc(CN(CCN)C(=O)c2cccs2)ccc1OCc1ccccc1 [M8-B]	HepG2	99.8
COc1cc2c3cc1Oc1cc(ccc1O)C[C@@H]1c4c(cc(OC)c(O)c4Oc4ccc(cc4)C[C@@H]3N(C)CC2)CC[N+]1(C)C [tubocurarine]	HepG2	99.5
CCCOCCn1c(=O)c(N2CCN(CCO)CC2)nc2cnc(-c3ccc(OC)nc3)cc21	HepG2	109
C[C@@H]1CN(c2c(F)c(F)c3c(=O)c(C(=O)O)cn(C4CC4)c3c2F)C[C@H](C)N1 [orbifloxacin]	HepG2	98.2
OCCOCCN1CCN(C(c2ccccc2)c2ccc(Cl)cc2)CC1 (configuration not stated) [hydroxyzine]	HepG2	101
CN1CCN(c2ccc(C(=O)Nc3n[nH]c4ccc(Cc5cc(F)cc(F)c5)cc34)c(NC3CCOCC3)c2)CC1 [entrectinib]	HepG2	104
O=C1OCCN1/N=C/c1ccc([N+](=O)[O-])o1 [furazolidone]	HepG2	99.3
Nc1ncnc2c1ncn2[C@@H]1O[C@H](COP(=O)(O)O)[C@@H](O)[C@H]1O [adenosine-phosphate]	HepG2	90.2
Cc1ncc(C[n+]2csc(CCOP(=O)(O)OP(=O)(O)O)c2C)c(N)n1 [thiamine-pyrophosphate]	HepG2	95.7
Cc1onc(-c2ccccc2Cl)c1C(=O)N[C@@H]1C(=O)N2[C@@H]1SC(C)(C)[C@@H]2C(=O)O [cloxacillin]	HepG2	107

====

Quick reference for relative viability EC50 among some compounds
System: Caco-2
Experiment: relative viability EC50 (midpoint between 100% and the lowest measured viability); higher = less toxic
Details: 72 h

structure string	system tested	relative viability EC50
CN(C)c1ccc(/C=C2\CCCN=C2c2cccnc2)cc1	Caco-2	> 10 µM
Nc1nnc(Sc2ncc([N+](=O)[O-])s2)s1	Caco-2	2.66 µM
CN(C)[C@@H]1C(O)=C(C(N)=O)C(=O)[C@@]2(O)C(O)=C3C(=O)c4c(O)ccc(Cl)c4[C@@H](O)[C@H]3C[C@@H]12	Caco-2	> 10 µM
CC[C@@H](CO)NC(=O)[C@@H]1C=C2c3cccc4[nH]cc(c34)C[C@H]2N(C)C1	Caco-2	> 10 µM

====

Test system: Caco-2
Assay: cell viability relative to DMSO; higher = less toxic
Details: 72 h; 100 nM

compound	cell viability, %
NC(=O)c1cccc2cn(-c3ccc([C@@H]4CCCNC4)cc3)nc12	89.9
CO/N=C(\C(=O)N[C@@H]1C(=O)N2C(C(=O)[O-])=C(C[n+]3ccn4ncccc43)CS[C@H]12)c1nsc(N)n1	96.5
CNCc1ccc(C)c(NC(=O)c2ccc(Nc3nc(-c4ccccc4)c4ccccc4n3)cc2)c1	90.1
CCOC(=O)[C@H](Cc1ccc([N+](=O)[O-])cc1)NC(=O)c1ccccc1	102
c1ccc2c(c1)CN1CCCC1=N2	105
CNC(=O)CN(CCN(CCN(CC(=O)[O-])CC(=O)NC)CC(=O)[O-])CC(=O)[O-].[Gd+3] [gadodiamide]	90.9
COc1c(C)c2c(c(O)c1C/C=C(\C)CCC(=O)OCCN1CCOCC1)C(=O)OC2 [mycophenolate-mofetil]	106
CC[C@@H](CO)NC(=O)[C@@H]1C=C2c3cccc4[nH]cc(c34)C[C@H]2N(C)C1	96.2
